Answer each item with its documented IC50.
Molecular target: UniProt:P05177
Sequence (P05177 1-516): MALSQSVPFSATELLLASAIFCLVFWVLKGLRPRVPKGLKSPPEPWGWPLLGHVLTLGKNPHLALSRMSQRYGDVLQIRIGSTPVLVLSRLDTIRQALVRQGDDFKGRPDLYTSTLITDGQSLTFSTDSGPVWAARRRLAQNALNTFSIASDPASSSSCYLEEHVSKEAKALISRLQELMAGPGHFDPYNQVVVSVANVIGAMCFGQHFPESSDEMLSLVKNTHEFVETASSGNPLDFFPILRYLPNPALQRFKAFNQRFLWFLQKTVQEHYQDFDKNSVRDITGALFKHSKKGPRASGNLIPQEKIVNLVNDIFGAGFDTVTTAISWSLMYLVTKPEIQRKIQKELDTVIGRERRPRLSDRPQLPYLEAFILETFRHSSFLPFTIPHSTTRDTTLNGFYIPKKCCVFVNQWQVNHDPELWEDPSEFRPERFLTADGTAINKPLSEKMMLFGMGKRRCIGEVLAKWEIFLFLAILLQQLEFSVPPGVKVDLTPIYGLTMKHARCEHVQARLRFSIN

QUERY: Recall the recorded IC50 for `Cn1ccc(-c2ccc(Cc3cc(C(=O)NC4CCOCC4)nc4ccn(C)c34)cc2)n1` with UniProt:P05177 and state it.
RESULT: > 30 µM

QUERY: Recall the recorded IC50 for `Cn1ccc(-c2ccc(Cc3cc(C(=O)NC4CCOCC4)nc4ccsc34)cc2)n1` with UniProt:P05177 and state it.
RESULT: > 30 µM

QUERY: Form: Entry = `Cn1ccc2nc(C(=O)NC3CCOCC3)cc(Cc3ccc(-c4cc[nH]n4)cc3)c21` | System = UniProt:P05177 | IC50 = ____
RESULT: > 30 µM

----------
For each entry below, report its clearance value.
Assay: IV/PO pharmacokinetics, rat
Type: in vivo
Conditions: Sprague-Dawley, plasma, 1 mg/kg; rat (SD), dose iv/po 1/10 mg/kg; read-out: CLp
Respond numerically; units are mL/min/kg and should not be typed.

QUERY: Given the molecule Cn1ccc(-c2ccc(Cc3cc(C(=O)NC4CCOCC4)nc4ccn(C)c34)cc2)n1 [compound 11] , what is its reported clearance?
RESULT: 26

QUERY: Can you share its clearance? I mean this molecule: Cn1ccc(-c2ccc(Cc3cc(C(=O)NC4CCOCC4)nc4ccsc34)cc2)n1 [compound 12]
RESULT: 33

----------
Experiment: IV/PO pharmacokinetics, NHP
Type: in vivo
Details: cynomolgus monkey, plasma, 1 mg/kg; NHP (cyno), dose iv/po 1/3 mg/kg; read-out: CLp
MEASURE: clearance (mL/min/kg)
Give the quantity in mL/min/kg, number only.

QUERY: clearance for `Cn1ccc(-c2ccc(Cc3cc(C(=O)NC4CCOCC4)nc4ccsc34)cc2)n1` ?
RESULT: 2.3

----------
Exercise: for every item that follows, state its recorded pIC50.
pIC50: −log10 of the molar value.

QUERY: CYP3A4 (Homo sapiens, UniProt P08684) / pIC50 / Cn1ccc2nc(C(=O)NC3CCOCC3)cc(Cc3ccc(-c4cc[nH]n4)cc3)c21 [compound 24] : value?
RESULT: 5.24

QUERY: Entry Cn1ccc(-c2ccc(Cc3cc(C(=O)NC4CCOCC4)nc4ccn(C)c34)cc2)n1 [compound 11] , system CYP3A4 (Homo sapiens, UniProt P08684): what pIC50 was measured?
RESULT: < 4.52

QUERY: Observed pIC50 on CYP3A4 (Homo sapiens, UniProt P08684) for Cn1ccc(-c2ccc(Cc3cc(C(=O)NC4CCOCC4)nc4ccsc34)cc2)n1 [compound 12] , please.
Sequence (P08684 whole entry): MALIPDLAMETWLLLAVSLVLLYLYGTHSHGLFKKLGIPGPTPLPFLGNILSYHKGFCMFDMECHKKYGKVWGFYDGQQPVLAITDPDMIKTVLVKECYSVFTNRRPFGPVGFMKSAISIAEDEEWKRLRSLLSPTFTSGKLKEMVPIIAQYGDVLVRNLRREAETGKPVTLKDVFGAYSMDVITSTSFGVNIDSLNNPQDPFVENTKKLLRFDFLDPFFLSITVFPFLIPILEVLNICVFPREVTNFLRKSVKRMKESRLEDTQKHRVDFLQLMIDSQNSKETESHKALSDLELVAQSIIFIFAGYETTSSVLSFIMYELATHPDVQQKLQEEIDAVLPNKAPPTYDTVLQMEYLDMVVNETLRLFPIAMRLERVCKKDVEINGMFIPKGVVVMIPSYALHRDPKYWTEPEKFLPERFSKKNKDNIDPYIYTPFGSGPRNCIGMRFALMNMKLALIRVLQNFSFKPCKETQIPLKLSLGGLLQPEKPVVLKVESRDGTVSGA
RESULT: < 4.52
